# System: Candida parapsilosis
# assayMethodText: Antifungal activity against Candida parapsilosis ATCC 90018 WTBF-88 by microbroth dilution method
# Format: functional
# assaySetup: Lodderomyces parapsilosis
parameterMeasured: MIC (µg/mL)
Express it in µg/mL; write the number only.

Past entries and their recorded results:
compound: O=C(O)C(F)(F)F.c1cc2cc(-c3ccc(-c4cc5ccc(C6=NCCN6)cc5[nH]4)cc3)[nH]c2cc1C1=NCCN1
parameterMeasured: MIC
observed: 0.63
//
compound: c1cc2cc(CCCc3cc4ccc(C5=NCCCN5)cc4[nH]3)[nH]c2cc1C1=NCCCN1
parameterMeasured: MIC
observed: 32

Query: Which value of MIC has been reported for CC(=O)O.c1cc2cc(-c3ccc4oc(C5=NCCCN5)cc4c3)[nH]c2cc1C1=NCCCN1 in the records?
Response: 0.5

Query: Request the reported MIC associated with CC(=O)O.c1cc2cc(-c3ccc4cc(C5=NCCCN5)[nH]c4c3)oc2cc1C1=NCCCN1
Response: 2

Query: Field request: MIC | item: Cl.OCC1(CO)CN=C(c2ccc3cc(-c4ccc(-c5cc6ccc(C7=NCC(CO)(CO)CN7)cc6[nH]5)cc4)[nH]c3c2)NC1
Response: 2

Query: # lookup: MIC of CC1CNC(c2ccc3cc(-c4ccc(-c5cc6ccc(C7=NC(C)CN7)cc6[nH]5)cc4)[nH]c3c2)=N1.O=C(O)C(F)(F)F (stereo not drawn)
Response: 0.4

Query: Consider the compound shown here: CC(=O)O.c1cc2cc(-c3ccc4cc(C5=NCCCN5)oc4c3)[nH]c2cc1C1=NCCCN1 What is its recorded MIC?
Response: 0.5

Query: So what's the measured MIC for this one? Clc1c(-c2ccc(-c3[nH]c4cc(C5=NCCCN5)ccc4c3Cl)cc2)[nH]c2cc(C3=NCCCN3)ccc12.O=C(O)C(F)(F)F
Response: 0.25
